Target: Ubiquitin carboxyl-terminal hydrolase 10 (Homo sapiens) (UniProt Q14694)
Sequence (Q14694 whole entry, looked up): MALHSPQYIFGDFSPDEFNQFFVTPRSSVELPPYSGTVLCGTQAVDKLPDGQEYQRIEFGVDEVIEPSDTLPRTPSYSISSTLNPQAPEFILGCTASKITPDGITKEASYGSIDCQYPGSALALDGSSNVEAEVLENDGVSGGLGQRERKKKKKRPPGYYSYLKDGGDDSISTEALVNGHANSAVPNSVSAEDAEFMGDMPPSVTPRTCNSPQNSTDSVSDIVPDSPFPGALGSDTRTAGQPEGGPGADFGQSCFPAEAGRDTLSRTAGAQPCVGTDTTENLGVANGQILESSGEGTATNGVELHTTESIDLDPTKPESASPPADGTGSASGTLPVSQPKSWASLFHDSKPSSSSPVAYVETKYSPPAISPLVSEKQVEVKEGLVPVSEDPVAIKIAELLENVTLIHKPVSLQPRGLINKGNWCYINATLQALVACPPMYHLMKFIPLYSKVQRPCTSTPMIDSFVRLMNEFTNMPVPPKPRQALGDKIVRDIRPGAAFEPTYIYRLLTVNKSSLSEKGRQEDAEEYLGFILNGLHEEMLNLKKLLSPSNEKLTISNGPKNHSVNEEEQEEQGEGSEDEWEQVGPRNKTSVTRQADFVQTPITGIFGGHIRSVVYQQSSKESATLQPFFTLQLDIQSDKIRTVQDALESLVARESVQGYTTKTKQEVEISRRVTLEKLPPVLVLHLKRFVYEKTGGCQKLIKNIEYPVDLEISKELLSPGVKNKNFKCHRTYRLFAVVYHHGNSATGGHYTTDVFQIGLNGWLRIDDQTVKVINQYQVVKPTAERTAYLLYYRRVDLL
Experiment: ubiquitin-specific protease 10 DUB inhibitors, concentration-effect, biochemical, verification of primary screen actives (AID 1645863);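 also: potency values describe inhibition of USP10 cleavage of a fluorogenic ubiquitin substrate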
Settings: USP10 deubiquitinase enzymatic assay
Calls of active or inactive are those of the source. No rule for the calls is given here.
Outcome codes: active, inactive

{"compound": "Cc1cc(N2CCOCC2)nc(N2CCN(C(=O)C(C)Oc3ccccc3)CC2)n1 (configuration not stated)", "target_desc": "Ubiquitin carboxyl-terminal hydrolase 10 (Homo sapiens) (UniProt Q14694)", "class_name": "inactive"}
{"compound": "CN1c2ccccc2C(=O)NC12CCN(C(=O)NCc1ccccc1)CC2", "target_desc": "Ubiquitin carboxyl-terminal hydrolase 10 (Homo sapiens) (UniProt Q14694)", "class_name": "inactive"}
{"compound": "CC(Nc1nnc(Cc2ccccc2)c(=O)[nH]1)c1ccccc1 (configuration not stated)", "target_desc": "Ubiquitin carboxyl-terminal hydrolase 10 (Homo sapiens) (UniProt Q14694)", "class_name": "inactive"}
{"compound": "NS(=O)(=O)c1ccc(CNC(=O)c2ccc(Cl)c(S(=O)(=O)Nc3cc(Cl)ccc3Cl)c2)cc1", "target_desc": "Ubiquitin carboxyl-terminal hydrolase 10 (Homo sapiens) (UniProt Q14694)", "class_name": "active"}
{"compound": "Cc1ccc(NC(=O)Nc2ccc(C)n(CC(=O)Nc3ccc(C)cc3C)c2=O)cc1", "target_desc": "Ubiquitin carboxyl-terminal hydrolase 10 (Homo sapiens) (UniProt Q14694)", "class_name": "active"}
{"compound": "CC(=O)Nc1ccc(Cc2nc(-c3ccc4c(c3)nc(C)c(=O)n4C3CCCC3)no2)cc1", "target_desc": "Ubiquitin carboxyl-terminal hydrolase 10 (Homo sapiens) (UniProt Q14694)", "class_name": "inactive"}
{"compound": "O=C(Cn1nnc2ccccc21)Nc1nc(-c2ccc3c(c2)CCN3C(=O)c2ccccc2F)cs1", "target_desc": "Ubiquitin carboxyl-terminal hydrolase 10 (Homo sapiens) (UniProt Q14694)", "class_name": "active"}
{"compound": "O=c1[nH]c(C2CCN(S(=O)(=O)c3ccc(S(=O)(=O)NC4CCCC4)cc3)CC2)nc2c1nnn2Cc1cccc(Cl)c1", "target_desc": "Ubiquitin carboxyl-terminal hydrolase 10 (Homo sapiens) (UniProt Q14694)", "class_name": "active"}
{"compound": "Cc1cc(C(=O)N2CCOCC2)c(C)n1-c1ccc(O)cc1", "target_desc": "Ubiquitin carboxyl-terminal hydrolase 10 (Homo sapiens) (UniProt Q14694)", "class_name": "inactive"}
{"compound": "O=C(Cn1cc(C(=O)c2ccccc2)c(=O)c2cc(F)ccc21)Nc1ccc2c(c1)OCCO2", "target_desc": "Ubiquitin carboxyl-terminal hydrolase 10 (Homo sapiens) (UniProt Q14694)", "class_name": "inactive"}
{"compound": "Cc1cc(OCC(=O)Nc2ccc3c(c2)NC(=O)CO3)ccc1Cl", "target_desc": "Ubiquitin carboxyl-terminal hydrolase 10 (Homo sapiens) (UniProt Q14694)", "class_name": "active"}
{"compound": "COc1cccc(-c2cncc(C3CCN(S(=O)(=O)N(C)C)CC3)n2)c1", "target_desc": "Ubiquitin carboxyl-terminal hydrolase 10 (Homo sapiens) (UniProt Q14694)", "class_name": "inactive"}
{"compound": "COc1cc(OC)c(NC(=O)Cn2c(=O)n(Cc3ccccc3Cl)c(=O)c3cc(OC)c(OC)cc32)cc1Cl", "target_desc": "Ubiquitin carboxyl-terminal hydrolase 10 (Homo sapiens) (UniProt Q14694)", "class_name": "inactive"}
{"compound": "COc1ccc(C(=O)Nc2nc(-c3ccc4c(c3)NC(=O)CO4)c(C)s2)cc1OC", "target_desc": "Ubiquitin carboxyl-terminal hydrolase 10 (Homo sapiens) (UniProt Q14694)", "class_name": "inactive"}
{"compound": "Cc1ccc2[nH]cc(S(=O)(=O)c3cc(F)cc(F)c3)c(=O)c2c1", "target_desc": "Ubiquitin carboxyl-terminal hydrolase 10 (Homo sapiens) (UniProt Q14694)", "class_name": "inactive"}
{"compound": "Cc1ccc(S(=O)(=O)Nc2cccc(Cl)c2)cc1NC(=O)CCC(=O)c1ccc(Cl)cc1", "target_desc": "Ubiquitin carboxyl-terminal hydrolase 10 (Homo sapiens) (UniProt Q14694)", "class_name": "inactive"}
{"compound": "O=C(Cn1cnc(-c2noc(-c3cccc(F)c3)n2)c1)Nc1ccccc1", "target_desc": "Ubiquitin carboxyl-terminal hydrolase 10 (Homo sapiens) (UniProt Q14694)", "class_name": "active"}
{"compound": "CCOc1ccc(NC(=O)Cn2c(=O)n(CCCCCC(=O)NCc3ccc(F)cc3)c(=O)c3sccc32)cc1", "target_desc": "Ubiquitin carboxyl-terminal hydrolase 10 (Homo sapiens) (UniProt Q14694)", "class_name": "active"}
{"compound": "CCC(=O)N1c2ccccc2NC2=C(C(=O)CC(c3ccccc3OCc3ccccc3)C2)C1c1ccccc1 (configuration not stated)", "target_desc": "Ubiquitin carboxyl-terminal hydrolase 10 (Homo sapiens) (UniProt Q14694)", "class_name": "active"}
{"compound": "CCOC(=O)N1CCN(C(=O)c2ccc(CS(=O)c3ccccc3Cl)o2)CC1 (configuration not stated)", "target_desc": "Ubiquitin carboxyl-terminal hydrolase 10 (Homo sapiens) (UniProt Q14694)", "class_name": "inactive"}
{"compound": "O[C@H]1[C@H](NCc2cccc(C(F)(F)F)c2)[C@@H](c2cncnc2)C[C@H]1O", "target_desc": "Ubiquitin carboxyl-terminal hydrolase 10 (Homo sapiens) (UniProt Q14694)", "class_name": "inactive"}
{"compound": "CSc1nc2ncn(CC(=O)Nc3ccc(Br)cc3)c(=O)c2s1", "target_desc": "Ubiquitin carboxyl-terminal hydrolase 10 (Homo sapiens) (UniProt Q14694)", "class_name": "inactive"}

Data origin, for the record: PubChem BioAssay AID1645863
